test: log P determination by HPLC on reverse-phase column (C 18), EEC-Directive 79/831 Annex V.A8
Format: physicochemical
protocol_conditions: compounds of formula (I-2-a); generally isomer mixtures; those marked 1) were separated into cis and trans diastereomers
Procedure: • The log P values given in the tables and preparation examples above are determined in accordance with EEC-Directive 79/831 Annex V.A8 by HPLC (High Performance Liquid Chromatography) on a reverse-phase column (C 18). Temperature: 43° C. The determination is carried out in the acidic range at pH 2.3 using the mobile phases 0.1% aqueous phosphoric acid and acetonitrile; linear gradient from 10% acetonitrile to 95% acetonitrile. […]
observable: logP

CCCCOC1CCCC2(C1)OC(=O)C(c1ccccc1C)=C2O (stereo not shown) [I-2-a-57] = 3.03
COC1CCCC2(C1)OC(=O)C(c1cc(F)c(C)cc1C)=C2O (mixture of isomers) [Example I-2-a-45] = 2.25
COC1CCCC2(C1)OC(=O)C(c1c(C)cc(C)c(Br)c1C)=C2O (mixture of isomers) [I-2-a-41] = 2.70
COC1CCCC2(C1)OC(=O)C(c1ccccc1Cl)=C2O (mixture of isomers) [I-2-a-38] = 1.86
COC1CCCC2(C1)OC(=O)C(c1cc(Cl)c(Br)cc1Cl)=C2O (mixture of isomers) [I-2-a-40] = 2.53
COC1CCCC2(C1)OC(=O)C(c1c(Cl)cc(C)cc1Br)=C2O (stereo not shown) [Example I-2-a-5] = 2.40
COC1CCCC2(C1)OC(=O)C(c1c(Cl)ccc(C)c1Cl)=C2O (mixture of isomers) [Example I-2-a-52] = 2.23
COC1CCCC2(C1)OC(=O)C(c1c(C)ccc(-c3ccc(Cl)cc3)c1C)=C2O (mixture of isomers) [Example I-2-a-42] = 3.29
COC1CCCC2(C1)OC(=O)C(c1cc(-c3cccc(Cl)c3)ccc1Cl)=C2O (stereo not shown) [Example I-2-a-34] = 3.11
COC1CCCC2(C1)OC(=O)C(c1cc(-c3ccc(Cl)cc3)c(C)cc1C)=C2O (mixture of isomers) [Example I-2-a-2] = 3.4

P = COC1CCCC2(C1)OC(=O)C(c1c(C)cc(Cl)cc1Br)=C2O (mixture of isomers) [Example I-2-a-4]
Q = CCCCOC1CCCC2(C1)OC(=O)C(c1c(C)cc(Br)cc1CC)=C2O (stereo not shown) [I-2-a-63]
Please tell me which of the two, P or Q , has the higher reported logP value. Write the label of whichever entry you select.
Q
(Q: 3.99, P: 2.46)

###

test: log P determination by HPLC on reverse-phase column (C 18), EEC-Directive 79/831 Annex V.A8
Format: physicochemical
protocol_conditions: compounds of formula (I-2-a); generally isomer mixtures; those marked 1) were separated into cis and trans diastereomers
observable: logP

See these solved cases before continuing.
COC1CCCC2(C1)OC(=O)C(c1c(Cl)cc(C)cc1Cl)=C2O (centres unmarked) [Example I-2-a-21] = 2.27
COC1CCCC2(C1)OC(=O)C(c1cc(F)c(C)cc1Br)=C2O (mixture of isomers) [I-2-a-44] = 2.25
COC1CCCC2(C1)OC(=O)C(c1c(Cl)cc(Br)c(C)c1Cl)=C2O (centres unmarked) [I-2-a-53] = 2.70
COC1CCCC2(C1)OC(=O)C(c1cc(-c3ccc(Cl)cc3)ccc1Cl)=C2O (centres unmarked) [Example I-2-a-31] = 3.14

I = CCCCOC1CCCC2(C1)OC(=O)C(c1c(CC)cc(Br)cc1CC)=C2O (centres unmarked) [I-2-a-55]
II = COC1CCCC2(C1)OC(=O)C(c1c(C)cccc1Cl)=C2O (centres unmarked) [I-2-a-25]
Please tell me which of the two, I or II , has the higher reported logP value. Write the label of whichever entry you select.
I
(I: 4.24, II: 1.92)

###

test: log P determination by HPLC on reverse-phase column (C 18), EEC-Directive 79/831 Annex V.A8
Format: physicochemical
protocol_conditions: compounds of formula (I-2-a); generally isomer mixtures; those marked 1) were separated into cis and trans diastereomers
observable: logP

CCc1cc(Br)cc(CC)c1C1=C(O)C2(CCCC(OC)C2)OC1=O (mixture of isomers) = 2.98
COC1CCCC2(C1)OC(=O)C(c1cc(C)c(Cl)cc1C)=C2O (mixture of isomers) = 2.47
COC1CCCC2(C1)OC(=O)C(c1c(C)cc(Cl)cc1Cl)=C2O (stereo not drawn) = 2.41

A = COC1CCCC2(C1)OC(=O)C(c1c(C)ccc(Cl)c1C)=C2O (mixture of isomers)
B = CCCCOC1CCCC2(C1)OC(=O)C(c1cc(C)c(C)cc1Br)=C2O (stereo not drawn)
I would appreciate it if you could say which entry, A or B , has the lower logP value. Write the label of whichever entry you select.
A
(A: 2.42, B: 3.57)

1 = COC1CCCC2(C1)OC(=O)C(c1c(C)cc(Br)c(C)c1Br)=C2O (mixture of isomers)
2 = COC1CCCC2(C1)OC(=O)C(c1c(Cl)cccc1Cl)=C2O (stereo not drawn)
I would appreciate it if you could say which entry, 1 or 2 , has the lower logP value. Write the label of whichever entry you select.
2
(2: 1.93, 1: 2.78)

A = COC1CCCC2(C1)OC(=O)C(c1ccc(Cl)cc1Br)=C2O (mixture of isomers)
B = CCCCOC1CCCC2(C1)OC(=O)C(c1ccc(C)cc1Cl)=C2O (stereo not drawn)
Please tell me which of the two, A or B , has the higher reported logP value. Write the label of whichever entry you select.
B
(B: 3.32, A: 2.25)

I = COC1CCCC2(C1)OC(=O)C(c1c(C)cc(Br)cc1C)=C2O (stereo not drawn)
II = CCCCOC1CCCC2(C1)OC(=O)C(c1c(C)cc(C)cc1Cl)=C2O (stereo not drawn)
I would appreciate it if you could say which entry, I or II , has the lower logP value. Write the label of whichever entry you select.
I
(I: 2.40, II: 3.49)

###

test: log P determination by HPLC on reverse-phase column (C 18), EEC-Directive 79/831 Annex V.A8
Assay type: physicochemical
protocol_conditions: HPLC reverse-phase C 18, acidic range pH 2.3, 43° C.
observable: logP

COc1cc(C)cc(C)c1C1=C(OC(=O)OC(C)C)C2(CCCC(OC)C2)OC1=O (centres unmarked) [Example I-2-c-5] = 3.75
COC1CCCC2(C1)OC(=O)C(c1c(C)cc(C)cc1C)=C2OC(=O)OC(C)C (centres unmarked) [Example I-2-c-4] = 4.34
COc1cc(C)cc(C)c1C1=C(OC(=O)OC(C)C)C2(CCCC(OC)C2)OC1=O (centres unmarked) [Example I-2-c-6] = 3.90
COC1CCCC2(C1)OC(=O)C(c1cc(-c3ccc(Cl)cc3)c(C)cc1C)=C2OC(=O)OC(C)C (centres unmarked) = 5.32
COC1CCCC2(C1)OC(=O)C(c1c(C)cc(C)cc1C)=C2OC(=O)OC(C)C (centres unmarked) [Example I-2-c-3] = 4.17

###

test: log P determination by HPLC on reverse-phase column (C 18), EEC-Directive 79/831 Annex V.A8
Assay type: physicochemical
protocol_conditions: compounds of formula (I-2-b); isomer (cis, trans or α + β about 1:1); two values for α + β mixtures
observable: logP

COC1CCCC2(C1)OC(=O)C(c1cc(-c3ccc(Cl)cc3)c(C)cc1C)=C2OC(=O)C(C)C (centres unmarked) [Example I-2-b-2] = 5.25
COC1CCCC2(C1)OC(=O)C(c1c(C)cc(C)cc1C)=C2OC(=O)C(C)C (centres unmarked) [Example I-2-b-3] = 4.32
COc1cc(C)cc(C)c1C1=C(OC(=O)C(C)C)C2(CCCC(OC)C2)OC1=O (centres unmarked) [Example I-2-b-6] = 3.75
COc1cc(C)cc(C)c1C1=C(OC(=O)C(C)C)C2(CCCC(OC)C2)OC1=O (centres unmarked) [Example I-2-b-5] = 3.90
COC1CCCC2(C1)OC(=O)C(c1c(C)cc(C)cc1C)=C2OC(=O)C(C)C (centres unmarked) [Example I-2-b-4] = 4.15

###

test: log P determination by HPLC on reverse-phase column (C 18), EEC-Directive 79/831 Annex V.A8
Format: physicochemical
protocol_conditions: compounds of formula (I-2-a); generally isomer mixtures; those marked 1) were separated into cis and trans diastereomers
observable: logP

See these solved cases before continuing.
COC1CCCC2(C1)OC(=O)C(c1cc(Br)ccc1Br)=C2O (mixture of isomers) [I-2-a-51] = 2.27
CCCCOC1CCCC2(C1)OC(=O)C(c1c(C)cc(C)c(C)c1C)=C2O (centres unmarked) [I-2-a-61] = 3.76
COC1CCCC2(C1)OC(=O)C(c1ccc(Cl)cc1C)=C2O (single isomer, unassigned) [Example I-2-a-6] = 2.19
COC1CCCC2(C1)OC(=O)C(c1cc(C)c(C)cc1Br)=C2O (centres unmarked) [Example I-2-a-9] = 2.35
COC1CCCC2(C1)OC(=O)C(c1c(C)cc(C)c(F)c1C)=C2O (centres unmarked) [Example I-2-a-54] = 2.45

1 = COC1CCCC2(C1)OC(=O)C(c1ccc(Br)cc1Cl)=C2O (mixture of isomers) [Example I-2-a-37]
2 = CCOC1CCCC2(C1)OC(=O)C(c1c(C)cc(-c3ccc(Cl)cc3)cc1CC)=C2O (centres unmarked) [Example I-2-a-17]
Please tell me which of the two, 1 or 2 , has the higher reported logP value. Write the label of whichever entry you select.
2
